Values were extracted from a melting point compilation (Tetko et al.; mined from patent text by program, amines drawn as free bases though some values may be those of a salt).

Record form. Attribute: melting point. Fill in for each entry.

Guide cases for melting point, answers given:
{"compound": "CCc1nc(N)nc(N)c1-c1ccc(N(Cc2ccccc2)Cc2ccccc2)c([N+](=O)[O-])c1", "melting point": "197 to 199 °C"}
{"compound": "CC(C)Nc1nc(Nc2cccc(NS(C)(=O)=O)c2)nc2[nH]cnc12", "melting point": "161 to 165 °C"}
{"compound": "NCCCNc1ccc(NCCCN)c2c1C(=O)c1c(O)ccc(O)c1C2=O", "melting point": "115 to 130 °C"}
{"compound": "Cc1c(C(=O)c2sc(Nc3ccc(S(N)(=O)=O)cc3)nc2N)sc2ccccc12", "melting point": "274 to 276 °C"}
{"compound": "CC(=O)NCc1cncn1C1c2ccccc2CCC1(C)C (stereo unspecified)", "melting point": "166 °C"}
{"compound": "CC1=C(c2ccccc2)C(=O)c2ccccc2C1=O", "melting point": "235 to 236 °C"}

Consider the following items and state reported melting point for each.
1. c1ccc(CN[C@H]2CCCN[C@H]2c2ccc(-c3ccccc3)cc2)cc1 (relative stereo)
2. O=C(CN1C(=O)CSC1=O)c1ccc(Cl)cc1
3. CCOC(=O)[C@H](CSC[C@H](Cc1ccccc1)NC(=O)OCc1ccccc1)N[C@@H](C)C(=O)O
4. COC(=O)c1cc(CBr)cc(C2(C#N)CC2)c1
5. Nc1nc2ccccc2c2c1ncn2CCOCC#Cc1ccccc1C(F)(F)F
6. CCCC#Cc1cnc(-c2ccc(F)cc2)nc1

stdout:
1: > 268 °C; 2: 122 to 124 °C; 3: 124 to 127 °C; 4: 78.3 to 79.8 °C; 5: 154 to 155 °C; 6: 51 °C

Consider the following items and state reported melting point for each.
1. Cc1noc(C)c1COc1ccc(C(=O)O)c(O)c1
2. COc1cc(COc2nn(C)cc2C(C)O)ccc1OCc1nc(-c2ccccc2)oc1C (stereo unspecified)
3. CC(C)(C)N(Cc1ccccc1)C(=O)C=c1sc2n(c1=O)Cc1ccccc1N=2
4. CCOC(=O)CC(=O)Nc1ccc(N)c([N+](=O)[O-])c1
5. CC(C)N(CCN1C(=O)C(=O)c2cc(F)ccc21)C(C)C
6. COc1ccc(Cl)cc1C1=NC(C)(C)CO1
7. OCc1nn(C(c2ccccc2)(c2ccccc2)c2ccccc2)c2ccccc12

stdout:
201 to 203 °C
94 to 95 °C
195 to 197 °C
133 to 136 °C
100 to 102 °C
50 to 51 °C
192 to 193 °C

Consider the following items and state reported melting point for each.
1. CCCNc1sc(C(N)=O)c2c1-c1c(cnn1C)CC2
2. O=c1[nH]c(NCCSCc2ccco2)ncc1Cc1cccnc1

stdout:
1: 207 to 208 °C; 2: 136 to 139 °C

====

Record form. Attribute: melting point. Fill in for each entry.

Guide cases for melting point, answers given:
{"compound": "Cc1c(C=NO)c2ccccc2n1-c1ccc(OCc2ccccc2)cc1", "reported value": "171 to 173 °C"}
{"compound": "NC(=O)[C@H]1NC(=O)[C@H]1NC(=O)OCc1ccccc1", "reported value": "248 to 249 °C"}
{"compound": "O=C(c1c(F)cccc1F)N1CN(c2ccccc2)CN(c2ccc(Cl)cc2)C1=O", "reported value": "166 to 168 °C"}
{"compound": "CCOC(=O)C(C1c2ccccc2Oc2ccccc21)[N+](=O)[O-] (configuration not stated)", "reported value": "89 to 91 °C"}

Consider the following items and state reported melting point for each.
1. CCCN1c2cscc2CN(C)c2ccccc21
2. Nc1cc(Br)cnc1CCCCNc1nccc(=O)[nH]1
3. CC(C)(C)OC(=O)N1CCC(C#N)(c2cccc(C(F)(F)F)c2)CC1
4. CCCc1nn(-c2ccc(C(F)(F)F)cn2)cc1CCCCOc1ccc(CC(=O)O)cc1
5. O=C(O)c1cn(C2CC2)c2cc(Cl)c(F)c(Cl)c2c1=O
6. Nc1ccccc1C1CCCN(C(=O)C(F)(F)F)C1 (configuration not stated)
7. CC(=O)Nc1nc(C)c(S(=O)(=O)N2CCC(O)C2)s1 (racemic)

stdout:
1. 90 to 92 °C
2. 130 to 135 °C
3. 72 to 73 °C
4. 121 to 122 °C
5. 277 to 278 °C
6. 138 °C
7. 241 °C

Consider the following items and state reported melting point for each.
1. COc1cc(C)nc(C#N)n1
2. O=C(c1sccc1-n1cccc1)N1CCCCC1
3. CCOC(=O)c1c[nH]c2c(cc(Cl)c3c(=O)c(C(=O)OCC)c[nH]c32)c1=O
4. COc1cccc2c1CC(C(=O)NCCOc1ccc(CC(=O)O)cc1)N2S(=O)(=O)c1ccc(-c2cccc(C(F)(F)F)c2)cc1 (configuration not stated)
5. CN(C)c1ccc(CCc2nc3sc4c(n3c2CO)CCCCC4)cc1
6. CSc1nn2c(N)cc(C)nc2c1S(=O)(=O)c1cccnc1
7. NC(=O)c1cn(CCO)nc1[N+](=O)[O-]
8. CC1NS(=O)(=O)c2sccc21 (configuration not stated)

stdout:
80 to 85 °C
126 °C
285 to 288 °C
96 °C
168 to 170 °C
227 to 228 °C
148 to 150 °C
79 to 81 °C
